Target: T1, Macaca fascicularis (mf) RET.mmh (Macaca fascicularis)
T1 construct: also called monkey RET
T1 chain: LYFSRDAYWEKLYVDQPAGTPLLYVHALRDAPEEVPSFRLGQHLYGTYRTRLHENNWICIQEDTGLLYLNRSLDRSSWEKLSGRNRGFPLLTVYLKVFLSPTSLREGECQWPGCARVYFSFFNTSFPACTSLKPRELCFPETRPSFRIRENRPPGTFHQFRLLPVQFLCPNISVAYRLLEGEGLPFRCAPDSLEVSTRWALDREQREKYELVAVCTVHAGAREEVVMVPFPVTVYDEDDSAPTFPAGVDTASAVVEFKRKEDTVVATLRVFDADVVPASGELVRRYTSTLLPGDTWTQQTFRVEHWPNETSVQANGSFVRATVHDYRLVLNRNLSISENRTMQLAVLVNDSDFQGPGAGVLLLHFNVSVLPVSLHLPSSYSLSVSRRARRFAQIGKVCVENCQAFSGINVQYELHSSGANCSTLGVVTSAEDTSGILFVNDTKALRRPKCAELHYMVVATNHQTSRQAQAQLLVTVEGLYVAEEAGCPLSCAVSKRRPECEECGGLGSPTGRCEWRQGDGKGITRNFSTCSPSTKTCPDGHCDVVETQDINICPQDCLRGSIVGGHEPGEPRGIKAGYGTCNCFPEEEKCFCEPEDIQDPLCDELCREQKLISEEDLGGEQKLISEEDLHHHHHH
Assay: SPR Biacore T200, mAb capture, 25 C
recordedEndpoint: koff (s⁻¹)
Output spec: scalar in s⁻¹, unitless text.

**Query** Tell us which koff value is on record for H4H8045P (antibody, human IgG4, V domains shown, human IgG4 Fc (H4H prefix)) VH: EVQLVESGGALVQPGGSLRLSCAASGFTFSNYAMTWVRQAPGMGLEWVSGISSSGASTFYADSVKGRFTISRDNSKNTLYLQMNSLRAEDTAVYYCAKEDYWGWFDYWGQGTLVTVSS VL: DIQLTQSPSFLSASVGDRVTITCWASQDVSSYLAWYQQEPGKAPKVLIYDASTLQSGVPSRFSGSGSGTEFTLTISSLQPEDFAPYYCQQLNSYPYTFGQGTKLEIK
**Result** 0.0028
